assay.info: Fraction unbound in human plasma at 5 uM incubated for 4.5 hrs by rapid equilibrium dialysis
Format: ADME, cell-free
Returns yes if the recorded Fu is greater than or equal to 0.07%, and no otherwise.

Below are worked cases with known answers.
>>> label_class("COc1nn(C)cc1C(=O)N[S@@]1(=O)=NC(=O)c2ccc3c(c2)N(C[C@@H]2CCO[C@H]2[C@](CN2CCN4CCOC[C@@H]4C2)(OC)/C(F)=C/C[C@H](C)C1)C[C@@]1(CCCc2cc(Cl)ccc21)CO3")
"yes"
>>> label_class("Cc1c2c(nn1C)CSCc1cc(n(C)n1)CSc1cc(c3ccccc3c1)OCCCc1c(C(=O)O)n(C)c3c-2c(Cl)ccc13 [AZD-5991]")
"no"
>>> label_class("COc1nn(C)cc1C(=O)N[S@@]1(=O)=NC(=O)c2ccc3c(c2)N(C[C@@H]2CCO[C@H]2[C@@H](OC)/C(F)=C/C[C@H](C)C1)C[C@@]1(CCCc2cc(Cl)ccc21)CO3")
"no"
>>> label_class("CO[C@]1(CN2CCN3CCCC[C@@H]3C2)/C=C/C[C@H](C)[C@@H](C)S(=O)(=O)NC(=O)c2ccc3c(c2)N(C[C@@H]2CC[C@H]21)C[C@@]1(CCCc2cc(Cl)ccc21)CO3 [MURIZATOCLAX]")
"yes"

Query: Kindly determine if Fu recorded for CO[C@@]1(CN2CCN3CCOC[C@@H]3C2)/C(F)=C/C[C@H](C)[C@@H](C)S(=O)(=O)NC(=O)c2ccc3c(c2)N(C[C@@H]2CCO[C@H]21)C[C@@]1(CCCc2cc(Cl)ccc21)CO3 is above or exactly 0.07%.
Reply: yes

Query: Kindly determine if Fu recorded for COc1nn(C)cc1C(=O)N[S@@]1(=O)=NC(=O)c2ccc3c(c2)N(C[C@@H]2CC[C@H]2[C@@H](OC)/C=C/C[C@H](C)C1)C[C@@]1(CCCc2cc(Cl)ccc21)CO3 is above or exactly 0.07%.
Reply: no

Query: Kindly determine if Fu recorded for COc1nn(C)cc1C(=O)N[S@@]1(=O)=NC(=O)c2ccc3c(c2)N(C[C@@H]2CCO[C@H]2[C@@](CN2CCN4CCOC[C@@H]4C2)(OC)/C(F)=C/C[C@H](C)C1)C[C@@]1(CCCc2cc(Cl)ccc21)CO3 is above or exactly 0.07%.
Reply: yes

Query: Kindly determine if Fu recorded for COCCOCCn1nc(C)c2c1CSCc1cc(n(C)n1)CSc1cc(c3ccccc3c1)OCCCn1c(C(=O)O)c(C)c3c-2c(Cl)ccc31 is above or exactly 0.07%.
Reply: yes

----------
Provide the reported pKi of each item.
assay.info: Inhibition of terbium-labelled Mcl-1 (unknown origin)/Bim BH3 peptide (H3N-(C/Cy5Mal)-WIAQELRRIGDEFN-OH) (unknown origin) interaction assessed as displacement of Cy5-labeled Bim BH3 peptide by TR-HTRF assay
Give bare numbers, as −log10 of the molar value.

Give pKi for each of the items listed below.
1. CO[C@@]1(CN2CCN3CCOC[C@@H]3C2)/C(F)=C/C[C@H](C)[C@H](C)S(=O)(=O)NC(=O)c2ccc3c(c2)N(C[C@@H]2CCO[C@H]21)C[C@@]1(CCCc2cc(Cl)ccc21)CO3
2. CO[C@@]1(CN2CCN3CCCC[C@@H]3C2)/C(F)=C/C[C@H](C)[C@@H](C)S(=O)(=O)NC(=O)c2ccc3c(c2)N(C[C@@H]2CCO[C@H]21)C[C@@]1(CCCc2cc(Cl)ccc21)CO3
3. COc1nn(C)cc1C(=O)N[S@@]1(=O)=NC(=O)c2ccc3c(c2)N(C[C@@H]2CC[C@H]2[C@@H](OC)/C=C/C[C@H](C)C1)C[C@@]1(CCCc2cc(Cl)ccc21)CO3
4. C[C@@H]1[C@@H](C)C/C=C(\F)[C@@](O)(CN2CCN3CCCC[C@@H]3C2)[C@@H]2OCC[C@H]2CN2C[C@@]3(CCCc4cc(Cl)ccc43)COc3ccc(cc32)C(=O)NS1(=O)=O
5. COc1nn(C)cc1C(=O)N[S@@]1(=O)=NC(=O)c2ccc3c(c2)N(C[C@@H]2CCO[C@H]2[C@](CN2CCN4CCOC[C@@H]4C2)(OC)/C(F)=C/C[C@H](C)C1)C[C@@]1(CCCc2cc(Cl)ccc21)CO3

Reply:
1: 9.89; 2: 9.82; 3: 10.10; 4: 9.66; 5: 10.85
